Some sequences, each annotated with its measured protein stability index.
assay: protein stability index of a GFP-peptide fusion (yeast GPS) (PSI 1-4); higher = more stable; sorted into four equal gates, so the index is relative within each strain; conditions: san1∆
Format: numeric value only, no unit, no commentary.

Past entries and their recorded results:
[
  {
    "Primary sequence": "HSKFRSSSGNTWSLILN [YML031W/NDC1]",
    "protein stability index": 3.15
  },
  {
    "Primary sequence": "AGLGKTNELWARLAILK [YGR119C/NUP57]",
    "protein stability index": 2.02
  }
]

[in] If you can, please state the reported protein stability index value of LVDLVSHFSPDIKAAVD [ITC1] .
[out] 2.09

[in] # iterate: VRYTTSVMPPNEVYSAY [DLS1]
[out] 2.48

[in] # iterate: YDRATLTQLLSMMSDGI [RPO31]
[out] 2.56

---

assay: protein stability index of a GFP-peptide fusion (yeast GPS) (PSI 1-4); higher = more stable; sorted into four equal gates, so the index is relative within each strain; conditions: ubr1∆
Please note: Yes applies when protein stability index is 3 or greater, and No applies otherwise.

[
  {
    "Primary sequence": "SDEVSRGIPRLSEDELR [SMC4]",
    "Classification": "Yes"
  },
  {
    "Primary sequence": "EIEVDEMEVDAEGEEVE [RPN1]",
    "Classification": "Yes"
  },
  {
    "Primary sequence": "NGVIIAADNLGSYGSLL [PRE4]",
    "Classification": "Yes"
  },
  {
    "Primary sequence": "IFSQTTNSTYNPASATD [YJL039C/NUP192]",
    "Classification": "No"
  }
]

[in] Answer whether protein stability index of KQGFVIYRVRVRRGNRK [RPL15A] is greater than or equal to 3.
[out] No

[in] # iterate: HFAWLPTHIWNAKRSHM [POP1]
[out] No

[in] # iterate: EDITEPKPDKPSGRTRG [ESC2]
[out] Yes

[in] # iterate: KRKVLELKKKRKIKRLE [SRP72]
[out] Yes

[in] # iterate: GPSAMRLSRCIRDNKLV [RPC82]
[out] No

[in] # iterate: VTKITDMLLHKYYIVSS [SRB8]
[out] No

---

Some sequences, each annotated with its measured protein stability index.
assay: protein stability index of a GFP-peptide fusion (yeast GPS) (PSI 1-4); higher = more stable; sorted into four equal gates, so the index is relative within each strain; conditions: pdr5∆
Format: numeric value only, no unit, no commentary.

Past entries and their recorded results:
[
  {
    "Primary sequence": "ISELPPQIRQEIEQLDQ [YGL172W/NUP49]",
    "protein stability index": 3.06
  },
  {
    "Primary sequence": "DVKKRTYEAIDVPGREL [RPB2]",
    "protein stability index": 3.35
  },
  {
    "Primary sequence": "EIEQLDQYIQKQVQISH [YGL172W/NUP49]",
    "protein stability index": 3.11
  },
  {
    "Primary sequence": "KNDEVLGLLLPIAASTD [RPN1]",
    "protein stability index": 2.3
  },
  {
    "Primary sequence": "VSKMEKAEKTLKSTKHS [SMC4]",
    "protein stability index": 2.42
  },
  {
    "Primary sequence": "IIMFVGLQGSGKTTSCT [SRP54]",
    "protein stability index": 3.04
  },
  {
    "Primary sequence": "LDAKNKVFVPPKSKSLP [RPO31]",
    "protein stability index": 3.03
  },
  {
    "Primary sequence": "QRIIADLSADKPTSPFI [SRB8]",
    "protein stability index": 2.81
  }
]

[in] If you can, please state the reported protein stability index value of VEDVSQNAADLQQICRV [RPL9A] .
[out] 3.42

[in] # iterate: NLLQISAAELERLDKDK [SNF5]
[out] 2.89

[in] # iterate: ANRVTDKLTRVHDKIWC [PRE3]
[out] 2.42

[in] # iterate: CIIFITFEFINIAFDAH [YML031W/NDC1]
[out] 1.44

[in] # iterate: QGRDTSKLPDPERWLPL [SRP72]
[out] 2.86

[in] # iterate: DTRITHLLRQTNAFLDS [SNF2]
[out] 1.47

The measured values listed here are drawn from the supplement of paper PMC9732359.
